- measured.on: ZBTB7A (Zinc Finger And BTB Domain Containing 7A) (Homo sapiens (Human), UniProt O95365+Q96SW2)
- Sequence (O95365 whole entry, the tested form may be a part): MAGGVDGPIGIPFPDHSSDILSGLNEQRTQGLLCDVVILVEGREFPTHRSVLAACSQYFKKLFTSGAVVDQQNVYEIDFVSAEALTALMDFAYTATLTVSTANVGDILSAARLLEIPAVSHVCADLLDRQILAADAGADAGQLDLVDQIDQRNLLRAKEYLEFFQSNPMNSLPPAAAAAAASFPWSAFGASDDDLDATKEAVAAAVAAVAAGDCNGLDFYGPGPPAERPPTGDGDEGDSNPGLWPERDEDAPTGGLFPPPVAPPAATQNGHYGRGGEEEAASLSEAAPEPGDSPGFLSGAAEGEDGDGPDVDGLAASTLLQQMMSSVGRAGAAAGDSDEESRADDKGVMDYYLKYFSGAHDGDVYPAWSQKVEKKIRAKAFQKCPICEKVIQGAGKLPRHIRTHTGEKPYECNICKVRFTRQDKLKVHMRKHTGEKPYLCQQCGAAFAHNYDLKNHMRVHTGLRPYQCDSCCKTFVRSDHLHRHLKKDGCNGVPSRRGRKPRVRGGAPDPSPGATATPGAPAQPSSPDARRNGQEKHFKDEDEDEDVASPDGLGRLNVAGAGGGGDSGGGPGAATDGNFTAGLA
- Sequence (Q96SW2 whole entry, the tested form may be a part): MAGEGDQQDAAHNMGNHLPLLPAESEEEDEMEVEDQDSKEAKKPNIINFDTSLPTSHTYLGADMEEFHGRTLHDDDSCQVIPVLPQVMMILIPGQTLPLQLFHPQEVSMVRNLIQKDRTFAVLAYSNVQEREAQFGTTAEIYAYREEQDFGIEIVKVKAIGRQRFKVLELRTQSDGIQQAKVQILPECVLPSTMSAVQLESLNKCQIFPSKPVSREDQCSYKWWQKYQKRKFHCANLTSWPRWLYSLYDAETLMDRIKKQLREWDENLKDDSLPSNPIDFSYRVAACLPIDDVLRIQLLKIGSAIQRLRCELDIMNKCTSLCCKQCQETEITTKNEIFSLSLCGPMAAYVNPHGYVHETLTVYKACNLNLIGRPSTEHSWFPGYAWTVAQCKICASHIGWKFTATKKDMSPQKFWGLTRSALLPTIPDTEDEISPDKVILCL
- Sequence (Q16531 whole entry partner, the tested form may be a part): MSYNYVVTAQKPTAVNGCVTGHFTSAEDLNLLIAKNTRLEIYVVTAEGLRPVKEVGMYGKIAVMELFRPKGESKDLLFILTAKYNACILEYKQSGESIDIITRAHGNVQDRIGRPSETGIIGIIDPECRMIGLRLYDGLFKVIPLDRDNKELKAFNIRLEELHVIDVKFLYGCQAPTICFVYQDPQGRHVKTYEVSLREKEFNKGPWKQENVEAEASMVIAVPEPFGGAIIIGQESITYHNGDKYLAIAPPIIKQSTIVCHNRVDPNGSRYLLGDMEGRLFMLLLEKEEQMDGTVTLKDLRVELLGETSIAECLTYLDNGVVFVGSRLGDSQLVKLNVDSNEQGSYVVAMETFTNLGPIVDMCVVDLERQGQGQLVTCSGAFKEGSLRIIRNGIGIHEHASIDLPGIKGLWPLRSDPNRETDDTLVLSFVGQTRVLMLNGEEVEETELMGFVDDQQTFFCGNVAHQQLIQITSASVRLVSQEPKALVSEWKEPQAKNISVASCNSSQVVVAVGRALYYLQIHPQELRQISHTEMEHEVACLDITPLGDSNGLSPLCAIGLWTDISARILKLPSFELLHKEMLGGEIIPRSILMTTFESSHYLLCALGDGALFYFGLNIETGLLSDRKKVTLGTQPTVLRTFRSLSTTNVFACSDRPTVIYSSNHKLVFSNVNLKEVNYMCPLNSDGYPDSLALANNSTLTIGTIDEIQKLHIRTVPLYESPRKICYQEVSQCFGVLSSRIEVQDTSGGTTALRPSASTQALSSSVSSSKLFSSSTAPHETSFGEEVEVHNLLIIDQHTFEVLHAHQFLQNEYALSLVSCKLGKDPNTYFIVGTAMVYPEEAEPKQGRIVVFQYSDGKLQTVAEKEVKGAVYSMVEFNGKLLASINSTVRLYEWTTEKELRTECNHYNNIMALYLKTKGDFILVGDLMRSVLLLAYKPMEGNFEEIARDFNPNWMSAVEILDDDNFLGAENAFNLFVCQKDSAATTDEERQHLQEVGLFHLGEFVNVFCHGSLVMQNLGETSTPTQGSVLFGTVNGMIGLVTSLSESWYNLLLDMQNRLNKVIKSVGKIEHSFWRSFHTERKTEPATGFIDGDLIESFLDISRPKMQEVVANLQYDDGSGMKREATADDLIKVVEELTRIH
- assay: HUDEP-2 ZBTB7A HiBiT degradation assay
- stated.conditions: HUDEP-2 ZBTB7A HiBiT cells, 24 hours treatment, luminescence
Provide the recorded EC50 for the entries that follow.

Input line: Recorded EC50 for Cc1nccc(-c2cc3c(cc2Nc2cccc4c2C(=O)N(C2CCC(=O)NC2=O)C4=O)N(C)C(=O)CC3)c1F (stereo not shown) , please?
Output line: < 30 nM

Input line: O=C1CCC(N2C(=O)c3cccc(Nc4cc5cnn(C6CCOCC6)c5cc4C4CC4)c3C2=O)C(=O)N1 (stereo not shown) , same question.
Output line: > 100 nM

Input line: CN1C(=O)CCc2cc(C3CC3)c(Nc3cccc4c3C(=O)N(C3CCC(=O)NC3=O)C4=O)cc21 (stereo not shown) , same question.
Output line: < 30 nM

Input line: CN(C)C1CCc2ccc(Nc3cccc4c3C(=O)N([C@@]3(C)CCC(=O)NC3=O)C4=O)cc21 (stereo partly shown) , same question.
Output line: > 100 nM

Input line: Cc1c(Nc2cccc3c2C(=O)N(C2CCC(=O)NC2=O)C3=O)ccc2c1cnn2C1CCOCC1 (stereo not shown) , same question.
Output line: > 100 nM

Input line: "COc1cc(-c2cc3c(cc2Nc2cccc4c2C(=O)N([C@H]2CCC(=O)NC2=O)C4=O)N(C)C(=O)CC3)cc(C)n1" , same question.
Output line: < 30 nM

Input line: Cc1cc(-c2cc3c(cc2Nc2cccc4c2C(=O)N(C2CCC(=O)NC2=O)C4=O)nc(C)n3C)ccn1 (stereo not shown) , same question.
Output line: > 100 nM

Input line: Cn1ncc2cc(Oc3ccccc3)c(Nc3cccc4c3C(=O)N(C3CCC(=O)NC3=O)C4=O)cc21 (stereo not shown) , same question.
Output line: > 100 nM

Input line: Cn1ncc2cc(Nc3cccc4c3C(=O)N(C3CCC(=O)NC3=O)C4=O)c(Oc3cccc(Cl)c3)cc21 (stereo not shown) , same question.
Output line: > 100 nM

Input line: "Cc1nn(C)cc1-c1cc2c(cc1Nc1cccc3c1C(=O)N([C@H]1CCC(=O)NC1=O)C3=O)N(C)C(=O)CC2" , same question.
Output line: < 30 nM

Input line: Cn1ncc2cc(Nc3cccc4c3C(=O)N(C3CCC(=O)NC3=O)C4=O)c(C3CCOCC3)cc21 (stereo not shown) , same question.
Output line: > 100 nM

Input line: Cc1cc(-c2cc3c(cnn3C)cc2Nc2cccc3c2C(=O)N(C2CCC(=O)NC2=O)C3=O)ccn1 (stereo not shown) , same question.
Output line: > 100 nM

Input line: Cc1ncncc1Oc1ccc2c(cnn2C)c1Nc1cccc2c1C(=O)N(C1CCC(=O)NC1=O)C2=O (stereo not shown) , same question.
Output line: > 100 nM

Input line: COc1nccc(-c2cc3c(cc2Nc2cccc4c2C(=O)N(C2CCC(=O)NC2=O)C4=O)N(C)C(=O)CC3)c1F (stereo not shown) , same question.
Output line: < 30 nM

Input line: Cc1cc(-c2cc3c(cc2Nc2cccc4c2C(=O)N(C2CCC(=O)NC2=O)C4=O)N(C)C(=O)CC3)ccn1 (stereo not shown) , same question.
Output line: < 30 nM

Input line: O=C1CCC(N2C(=O)c3cccc(Nc4cc5cnn(C6CCOCC6)c5cc4-c4ccnc(C(F)F)c4)c3C2=O)C(=O)N1 (stereo not shown) , same question.
Output line: > 100 nM

Input line: COc1ccc(-c2cc3c(cnn3C)cc2Nc2cccc3c2C(=O)N(C2CCC(=O)NC2=O)C3=O)cc1F (stereo not shown) , same question.
Output line: > 100 nM

Input line: Cc1cc(-c2cc3c(cc2Nc2cccc4c2C(=O)N(C2CCC(=O)NC2=O)C4=O)N(C)C(=O)CC3)cc(C)n1 (stereo not shown) , same question.
Output line: < 30 nM

Input line: "Cc1cc(-c2cc3c(cc2Nc2cccc4c2C(=O)N([C@H]2CCC(=O)NC2=O)C4=O)n(C)c(=O)n3C)ccn1" , same question.
Output line: < 30 nM

Input line: "CN1C(=O)CCc2cc(-c3cnn(C4CC4)c3)c(Nc3cccc4c3C(=O)N([C@H]3CCC(=O)NC3=O)C4=O)cc21" , same question.
Output line: < 30 nM

Input line: O=C1CCC(N2C(=O)c3cccc(Nc4cc5cnn(C6CCOCC6)c5cc4Oc4cccc(F)c4)c3C2=O)C(=O)N1 (stereo not shown) , same question.
Output line: > 100 nM

Input line: "Cc1cc(-c2cc3c(cc2Nc2cccc4c2C(=O)N([C@H]2CCC(=O)NC2=O)C4=O)n(C)c(=O)n3C)cc(C)n1" , same question.
Output line: < 30 nM

Input line: Cc1nccc(-c2cc3c(cnn3C)cc2Nc2cccc3c2C(=O)N(C2CCC(=O)NC2=O)C3=O)c1C (stereo not shown) , same question.
Output line: > 100 nM

Input line: Cc1cc(-c2cc3c(cc2Nc2cccc4c2C(=O)N(C2CCC(=O)NC2=O)C4=O)N(C)C(=O)CC3)c(F)cn1 (stereo not shown) , same question.
Output line: < 30 nM

Input line: "Cc1cc(-c2cc3c(cc2Nc2cccc4c2C(=O)N([C@]2(C)CCC(=O)NC2=O)C4=O)N(C)C(=O)CC3)ccn1" , same question.
Output line: > 100 nM

Input line: Cc1cc(-c2cc3c(cnn3C)cc2Nc2cccc3c2C(=O)N(C2CCC(=O)NC2=O)C3=O)cnn1 (stereo not shown) , same question.
Output line: > 100 nM

Input line: CC1(N2C(=O)c3cccc(Nc4cccc(COc5ccccc5)c4)c3C2=O)CCC(=O)NC1=O (stereo not shown) , same question.
Output line: > 100 nM

Input line: "Cc1cc(-c2cc3c(cnn3[C@@H]3CCOC3)cc2Nc2cccc3c2C(=O)N([C@@H]2CCC(=O)NC2=O)C3=O)ccn1" , same question.
Output line: > 100 nM
